system: SN12C; assay: NCI tumour cell line growth inhibition, 48 h
Active and inactive are the calls of the source. Rule as the data show it: active = GI50 up to about 1.1 µM and inactive = higher.
reported-endpoint: GI50

compound=CNc1ncnc2c1nnn2C result="> 100 µM (inactive)"
compound="CCOC(=O)C(O)(CC1=NC(C(=O)OC)(C(=O)OC)C(c2cccc(C=O)c2)O1)C(=O)OCC (configuration not stated)" result="> 100 µM (inactive)"
compound="N#Cc1nn(C2OC(COC(=O)c3ccccc3)C(OC(=O)c3ccccc3)C2OC(=O)c2ccccc2)c2nc[nH]c(=O)c12 (configuration not stated)" result="77.4 µM (inactive)"
compound=CCn1nc2c3c(ncn3C(C)(C)O2)c1=O result="> 100 µM (inactive)"
compound="CC(=O)OC(Cc1c(O)c2c(C)cccc2oc1=O)C(C)(C)O (configuration not stated)" result="> 100 µM (inactive)"
compound=N=C(/C=C/c1ccc(-c2cn3cc(/C=C/C(=N)N4CCCC4)ccc3n2)cc1)N1CCCC1 result="> 100 µM (inactive)"
compound=Nc1ccc(S(=O)(=O)C23CC4CC(CC(C4)C2)C3)cc1 result="> 100 µM (inactive)"
compound="Cc1ccc2c(c1)C(c1cccc3ccccc13)OC2=O (configuration not stated)" result="> 100 µM (inactive)"
compound=COc1ccc(NC(=S)N/N=C/c2cccc(C)n2)cc1 result="5.79 µM (inactive)"
compound="Cc1ccc(C)n1-c1ccccc1C1C=Cn2c(=O)oc3c(OC(C)C)c(OC(C)C)c(O)c1c32 (configuration not stated)" result="76.6 µM (inactive)"
compound="C[C@@H]1OC2(O)[C@@H]3CCCN3C(=O)N(Cc3ccccc3)N2C1=O (some centres not stated)" result="> 100 µM (inactive)"
compound="CN(C)CCCN1c2ccccc2C(C)(C)c2ccccc21 [DIMETACRINE]" result="14.4 µM (inactive)"
